assay_remarks: NCI Yeast Anticancer Drug Screen. Data for the CLN2oe strain (AID 163);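 also: 0% = growth of vehicle-only control cultures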
measurement_context: S. cerevisiae CLN2oe strain, at 100.0 µM, stronger effect = higher value
The panel holds about 79,000 compounds, 15% with a hit somewhere; the sample as a whole holds those more often.
This listing pairs compounds with measured growth inhibition.
measurement_name: growth inhibition (%)

| compound | unit_of_measure | endpoint_value |
| --- | --- | --- |
| Cc1nc2c(ncn2CCO)c(=O)[nH]1 | % | -4 |
| O=C1c2c(O)cccc2-c2nn(CCNCCO)c3ccc(NCCNCCO)c1c23 | % | 18 |
| Cc1cc(C)c(N2C(=O)CC(Sc3ccccc3N)C2=O)c(C)c1 (stereo not given) | % | -2 |
| CN(N=O)C(=O)N[C@@H](C=O)[C@@H](O)[C@H](O)[C@H](O)CO | % | -6 |
| CC(=O)[O-].O=C([CH-]C(=O)c1ccccc1)c1ccccc1.O=C([CH-]C(=O)c1ccccc1)c1ccccc1.[Sm+3] | % | 97 |

* * *

assay_remarks: NCI Yeast Anticancer Drug Screen. Data for the mlh1 strain (AID 171);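 also: 0% = growth of vehicle-treated control cultures of the same strain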
measurement_context: S. cerevisiae mlh1 strain growth inhibition; at 1.2 µM
This is part of a sample that, as a whole, favours compounds with a hit. Of some 79,000 tested, about 15% had one in any assay. The source made the active and inactive calls. No stated cut-off is given here; in the data, active means growth inhibition above about 70%; inactive means the rest.
Labels: true (1) = active, false (0) = inactive

| compound | group_label |
| --- | --- |
| NP1(Oc2ccc(F)cc2)=NP(N)(Oc2ccc(F)cc2)=NP(Oc2ccc(F)cc2)(Oc2ccc(F)cc2)=N1 (stereo unspecified) | false (0) |
| CC(=O)[O-].O=C([CH-]C(=O)c1ccccc1)c1ccccc1.O=C([CH-]C(=O)c1ccccc1)c1ccccc1.[Sm+3] | false (0) |
| CCCCC(=O)c1c(O)nc2sccn2c1=O | false (0) |
| Cc1onc(-c2ccccc2Cl)c1C1=N/C(=C/c2cc(Cl)cc(Cl)c2O)C(=O)O1 | false (0) |
| Cc1cccc(/C=N/NC(=S)N(C)CCc2ccccn2)n1 | true (1) |
| CO[C@@]12[C@H](COC(N)=O)C3=C(C(=O)C(C)=C(N)C3=O)N1C[C@@H]1N[C@@H]12 | false (0) |

* * *

assay_remarks: NCI Yeast Anticancer Drug Screen. Data for the wt2 strain (AID 169);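 also: 0% = growth of vehicle-treated yeast cultures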
measurement_context: S. cerevisiae wt2 strain growth inhibition; at 11.0 µM; stronger effect = higher value
This is part of a sample that, as a whole, favours compounds with a hit. Of some 79,000 tested, about 15% had one in any assay.
measurement_name: growth inhibition (%)

| molecule | endpoint_value |
| --- | --- |
| COc1ccc(/C(C#N)=C/c2ccc(OC)c(OC)c2)cc1 | -21 |
| COc1ccc(S(=O)(=O)N/N=C\c2cc([N+](=O)[O-])cc(I)c2O)c(OC)c1OC | -6 |
| Cc1cc(O)c2c(c1)C(=O)C=C(Br)C2=O | 54 |
| O=C(CNS(=O)(=O)Cc1ccccc1)NNc1ccccc1 | 11 |
| c1ccc2c(c1)Cn1c-2nc2ccccc21 | -4 |
| O=Nn1c2ccccc2c2cc([N+](=O)[O-])ccc21 | 8 |

* * *

assay_remarks: NCI Yeast Anticancer Drug Screen. Data for the rad50 strain (AID 155);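 also: 0% = growth of vehicle-only cultures of the same strain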
measurement_context: S. cerevisiae rad50 strain growth inhibition; at 3.7 µM; stronger effect = higher value
The panel holds about 79,000 compounds, 15% with a hit somewhere; the sample as a whole holds those more often.
This listing pairs compounds with measured growth inhibition.

| compound | unit_of_measure | growth inhibition |
| --- | --- | --- |
| S=c1cn[nH]c2ccc(Br)cc12 | % | -9 |
| Cc1cc(O)c2c(c1)C(=O)C=C(Br)C2=O | % | 71 |
| CO[C@@]12[C@H](COC(N)=O)C3=C(C(=O)C(C)=C(N)C3=O)N1C[C@@H]1N[C@@H]12 | % | 14 |
| O=C(Nc1ccc2c(c1)Cc1c-2ccc([N+](=O)[O-])c1F)C(F)(F)F | % | 4 |
| Cc1cc(O)c2c(c1O)C(=O)C13C(=C2O)C(=O)C2C(O)C1C1C(O)C3C(=O)C3=C(O)c4c(O)cc(C)c(O)c4C(=O)C321 (stereo unspecified) | % | 37 |
| COc1ccc(/C(C#N)=C/c2ccc(OC)c(OC)c2)cc1 | % | -4 |
| c1ccc2c(c1)Cn1c-2nc2ccccc21 | % | 1 |
| COCCCN(Cc1cc(OC)c(OC)c(OC)c1)C(=S)Nc1cccc(Cl)c1 | % | -13 |
| O=C1C=CC(=Nc2ccccc2)c2ccccc21 | % | 15 |
| CN(C)c1ccc(/C=C/c2ccnc3ccccc23)cc1N | % | -10 |
| S=P(N1CC1)(N1CC1)N1CC1 | % | 0 |
| O=C(CCc1ccccc1)ON1C(=S)C(c2ccccc2)(c2ccccc2)N=C1Sc1ccccc1 | % | 34 |
| CN(C)CCN1C(=O)c2cccc3cc([N+](=O)[O-])cc(c23)C1=O | % | 35 |
| O=C1C=CC(=O)N1c1ccc2c(c1)OCO2 | % | 86 |
| O=C(NCCCCCN1CCC2(CCCCC2)CC1)C(C1CCCCC1)C1CCCCC1 | % | 11 |
| CCCCC(CC)C(=O)Oc1ccc(C(=O)c2ccccc2)c(O)c1 (stereo unspecified) | % | 4 |
| CCCCCCCCCCCCCCCCNC(=O)/C(=C\c1ccc(Cl)c(Cl)c1)NC(=O)c1ccccc1 | % | 0 |
| CC(=O)O[C@H]1C(=O)[C@@]2(C)[C@H]([C@H](OC(=O)c3ccccc3)[C@]3(O)C[C@H](OC(=O)[C@H](O)[C@@H](NC(=O)c4ccccc4)c4ccccc4)C(C)=C1C3(C)C)[C@]1(OC(C)=O)CO[C@@H]1C[C@@H]2O | % | -2 |
| N#CC(=C1C=CC(=NO)C=C1)c1ccccc1 | % | 26 |
| Cc1ccc(S(=O)(=O)Nc2ccc3c(c2)C(O)c2ccccc2-3)cc1 (stereo unspecified) | % | -3 |
| CCC(=O)Oc1ccc(/C=N/NC(N)=S)nc1 | % | -11 |

* * *

assay_remarks: NCI Yeast Anticancer Drug Screen. Data for the rad14 strain (AID 159);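 also: 0% = growth of vehicle-treated control cultures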
measurement_context: S. cerevisiae rad14 strain growth inhibition; at 100.0 µM
Experimental: Growth inhibition of yeast strains with defined genetic alterations is measured as a screen for potential anti-cancer activity. Selected strains with alterations in DNA damage repair or cell cycle control were exposed to compounds and growth inhibition was measured relative to vehicle treated controls. The strain used in this assay is rad14
The panel holds about 79,000 compounds, 15% with a hit somewhere; the sample as a whole holds those more often. Active and inactive are the calls of the source. No stated cut-off is given here; in the data, active means growth inhibition above about 70%; inactive means the rest.
Labels: active, inactive

| compound | group_label |
| --- | --- |
| N#Cc1sc2c(c1OC(=O)c1ccco1)c(=O)n(-c1ccccc1)c(=S)n2-c1ccccc1 | inactive |
| CCCCCC(=O)c1ccc(O)cc1O | active |
| O=C(Nc1cccc(C(F)(F)F)c1)Oc1ccc(Cl)cc1C(=O)c1ccccc1 | active |
| N#CC(=C1C=CC(=NO)C=C1)c1ccccc1 | active |
| CN(C)CC1CCCc2ccccc2C1=O (stereo unspecified) | active |
| OCCN(CCO)c1ccc2c(c1)Cc1ccccc1-2 | inactive |

* * *

assay_remarks: NCI Yeast Anticancer Drug Screen. Data for the mgt1 strain (AID 153)
measurement_context: S. cerevisiae mgt1 mutant growth inhibition; at 11.0 µM; stronger effect = higher value
Procedure: Growth inhibition of yeast strains with defined genetic alterations is measured as a screen for potential anti-cancer activity. Selected strains with alterations in DNA damage repair or cell cycle control were exposed to compounds and growth inhibition was measured relative to vehicle treated controls. The strain used in this assay is mgt1
Compounds without any hit were thinned out: in the full panel of roughly 79,000, 15% have a hit.

| molecule | growth inhibition / % |
| --- | --- |
| Cn1ncc2cc3c(Nc4ccc(Cl)cc4)cccc3nc21 | -4 |
| CC(=O)[C@]1(O)Cc2c(O)c3c(c(O)c2[C@@H](OC2CC(N)C(O)C(C)O2)C1)C(=O)c1c(OCc2ccccc2)cccc1C3=O (stereo not given in full) | 5 |
| CN(Cc1cnc2nc(N)nc(N)c2n1)c1ccc(C(=O)NC(CCC(=O)O)C(=O)O)c2ccccc12 (stereo not given) | 25 |
| CC(=O)C1(O)Cc2c(O)c3c(c(O)c2C(OC2CC(N)C(O)C(C)O2)C1)C(=O)c1ccccc1C3=O (stereo not given) | 92 |
| ClCCn1c(CCl)nc2ccc(Cl)cc21 | -16 |
| CN(CC(=O)O)c1ccc(/C=C/c2ccnc3ccccc23)cc1 | -2 |
| O=C1c2c(O)cccc2-c2nn(CCNCCO)c3ccc(NCCNCCO)c1c23 | -3 |
| CCOC(=O)C1=C(C)NC(C)=C(C(=O)OCC)C1c1ccccc1Cl | 19 |
| NCc1c(O)ccc2ccccc12 | 3 |
| Cc1c(-c2ccccc2)[nH]c2ccccc12 | -11 |
| CCC(C)(c1ccc(O)c(C)c1)c1ccc(O)c(C)c1 | 14 |
| CN(C)CCNc1cccc2sc3ccc(O)cc3c(=O)c12 | -3 |
| O=c1[nH]cc(/C=N\Nc2ccccc2)c(=O)[nH]1 | 21 |
| O=C1C=CC(=O)N1c1ccc(N2C(=O)C=CC2=O)cc1 | 100 |
| COc1ccc(N=N/C(=N\NC(=O)c2cc(Br)ccc2O)c2ccc(N(CCC#N)CCC#N)cc2OC)cc1 | 24 |

Value source: PubChem BioAssay (NCI)
